system: TK-10 renal; test: NCI-60 one-dose screen, 48 h (100 = growth as untreated, 0 = no growth, -100 = all killed); settings: 10 µM
About 83,000 compounds went through this panel and 20% of them were active in at least one assay; those are over-represented in the sample as a whole. Calls of active or inactive are those of the source. Rule for the calls: active = growth percent below 10; inactive = the rest.
experimental_endpoint: growth

Recorded growth for "CC1=C2C(=C[C@@](C)(COP(=O)(Oc3ccccc3)Oc3ccccc3)[C@@H]2O)C(=O)[C@@](C)(O)C12CC2" , please?
-22.2% (active)

Recorded growth for "O=C(/C=C/c1ccccc1Cl)c1nc2ccccc2n1Cc1ccc(F)cc1" , please?
-44.2% (active)

Recorded growth for "O=C(/C=C/c1ccc(Cl)cc1)c1nc2ccccc2n1Cc1ccc(Br)cc1" , please?
93.7% (inactive)

The reported numbers originate from PubChem BioAssay (NCI).
